biological target: WT Spike (SARS-CoV-2, UniProt P0DTC2 16-1213)
pKd: −log10 of the molar value.
recorded metric: pKd

>>> reported_measurement("RBD-R3-E1-B3 Ab (Ab_32) (scFv, V domains shown) VH: QVQLVQSGAEVKKPGESLKISCKGSGYSFTSYWIGWVRQMPGKGLEWMGIIYPGDSDTRYSPSFQGQVTISADKSISTAYLQWSSLKASDTAMYYCARGWQWHDYWGQGTLVTVSS VL: QTVVTQEPAVSVALGQTVRITCQGDSLRSYYASWYQQKPGQAPVLVVYDKDKRPSGIPDRFSGSTSGNTASLTITGAQAEDEADYYCNSRDRSDNHVVFGGGTKLTVL")
11.20
>>> reported_measurement("Ab_16 (scFv, V domains shown) VH: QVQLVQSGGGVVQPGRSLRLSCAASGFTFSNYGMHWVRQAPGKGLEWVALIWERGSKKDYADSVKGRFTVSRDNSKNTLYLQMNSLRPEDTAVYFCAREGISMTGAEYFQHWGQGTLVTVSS VL: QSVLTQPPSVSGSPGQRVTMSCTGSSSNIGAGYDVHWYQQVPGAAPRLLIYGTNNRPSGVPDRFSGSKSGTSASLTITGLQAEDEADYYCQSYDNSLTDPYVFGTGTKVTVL")
10.93
